- Test method notes: Clearance in rat at 10 mg/kg, iv
- Type: ADME, organism-based
- Parameters: dose 10 mg/kg, route intravenous
- Experimental context: in vivo
Recorded metric: clearance (mL/min/kg)
Hi! Could you send only the number? It should be in mL/min/kg, unit omitted.

Illustrative cases are given below, each with its answer.
{"Input smiles": "C[C@@](CCc1ccc(-c2ccc(O)cc2)cc1)(C(=O)NO)S(C)(=O)=O", "Reported measurement": 65}
{"Input smiles": "C[C@@](CCc1ccc(-c2ccccc2)cc1)(C(=O)NO)S(C)(=O)=O", "Reported measurement": 58}
{"Input smiles": "C[C@@](CCc1ccc(-c2ccc(O)cc2)cc1)(C(=O)O)S(C)(=O)=O", "Reported measurement": 15}

Check the records and state clearance for C[C@@](CCc1ccc(-c2ccc(C#N)cc2)cc1)(C(=O)NO)S(C)(=O)=O 53

----------
- Test method notes: AUC in rat at 10 mg/kg, iv
- Format: ADME, organism-based
- Design: dose 10 mg/kg, route intravenous
- Experimental context: plasma
Recorded metric: AUC (ng·h/mL)
A number alone suffices; assume ng·h/mL.

# example entries with known answers
{"Input smiles": "C[C@@](CCc1ccc(-c2ccccc2)cc1)(C(=O)NO)S(C)(=O)=O", "Unit info": "ng·h/mL", "Reported measurement": 2800}
{"Input smiles": "C[C@@](CCc1ccc(-c2ccc(O)cc2)cc1)(C(=O)O)S(C)(=O)=O", "Unit info": "ng·h/mL", "Reported measurement": 10900}
{"Input smiles": "C[C@@](CCc1ccc(-c2ccc(O)cc2)cc1)(C(=O)NO)S(C)(=O)=O", "Unit info": "ng·h/mL", "Reported measurement": 2500}

Now consider the entry below.
Look up AUC of C[C@@](CCc1ccc(-c2ccc(C#N)cc2)cc1)(C(=O)NO)S(C)(=O)=O and report it. 3100

----------
- System: Matrix metalloproteinase-20 (Homo sapiens, UniProt O60882)
- Sequence (O60882 whole entry): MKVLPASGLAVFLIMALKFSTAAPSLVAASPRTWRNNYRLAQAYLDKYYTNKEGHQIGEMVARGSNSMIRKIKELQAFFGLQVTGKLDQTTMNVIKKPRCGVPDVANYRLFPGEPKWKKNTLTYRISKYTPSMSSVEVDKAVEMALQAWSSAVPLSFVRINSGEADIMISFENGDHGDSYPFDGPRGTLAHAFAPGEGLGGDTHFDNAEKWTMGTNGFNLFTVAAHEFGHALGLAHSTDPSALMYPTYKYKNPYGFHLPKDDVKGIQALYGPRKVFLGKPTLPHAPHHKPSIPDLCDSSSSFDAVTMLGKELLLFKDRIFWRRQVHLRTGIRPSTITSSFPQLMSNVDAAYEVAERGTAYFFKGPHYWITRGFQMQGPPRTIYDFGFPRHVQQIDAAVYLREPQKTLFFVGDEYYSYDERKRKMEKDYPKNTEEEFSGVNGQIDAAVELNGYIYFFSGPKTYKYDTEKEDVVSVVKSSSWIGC
pKi: −log10 of the molar value.
Recorded metric: pKi

Enter pKi (test system Matrix metalloproteinase-20 (Homo sapiens, UniProt O60882)) for C[C@@](CCc1ccc(-c2ccccc2)cc1)(C(=O)NO)S(C)(=O)=O < 5.00

----------
- Test system: Klebsiella aerogenes
- Test method notes: Antibacterial activity against Enterobacter aerogenes after 16 to 20 hrs by broth microdilution method
- Assay type: functional
Measured MIC90, listed per entry for reference.

{"Input smiles": "O=C(O)c1cn(C2CC2)c2cc(N3CCNCC3)c(F)cc2c1=O", "System": "Klebsiella aerogenes", "Recorded metric": "MIC90", "Reported measurement": "1 µg/mL"}

For the compound C[C@@](CCc1ccc(-c2ccc(F)cc2)cc1)(C(=O)NO)S(C)(=O)=O , give its reported MIC90. 2 µg/mL

In one line, give reported MIC90 of the entry C[C@@H](O)[C@H](NC(=O)c1ccc(C#Cc2ccc(CN3CCOCC3)cc2)cc1)C(=O)NO . 0.5 µg/mL

Please report the measured MIC90 for C[C@@](CCc1ccc(-c2ccc(OCCCN3CCOCC3)cc2)cc1)(C(=O)NO)S(C)(=O)=O 1 µg/mL

Provide one value: measured MIC90 of C[C@H]1[C@H](NC(=O)/C(=N\OC(C)(C)C(=O)O)c2csc(N)n2)C(=O)N1S(=O)(=O)O 32 µg/mL

Return the recorded MIC90 value; entry: C[C@@](CCc1ccc(-c2ccc(C(=O)CO)cc2)cc1)(C(=O)NO)S(C)(=O)=O 4 µg/mL

Give the reported value of MIC90 for this record: C[C@@](CCc1ccc(-c2ccccc2)cc1)(C(=O)NO)S(C)(=O)=O 4 µg/mL

Answer with the recorded MIC90 for the compound listed here: C[C@@](CCc1ccc(-c2ccc(C#N)cc2)cc1)(C(=O)NO)S(C)(=O)=O 1 µg/mL

Give reported MIC90 value for C[C@@](CCc1ccc(-c2ccc3c(c2)OCO3)cc1)(C(=O)NO)S(C)(=O)=O 1 µg/mL

Tell us which MIC90 value is on record for C[C@@](CCc1ccc(-c2ccc(O)cc2)cc1)(C(=O)NO)S(C)(=O)=O 16 µg/mL

----------
- Test method notes: Volume of distribution at steady state in rat at 10 mg/kg, iv
- Assay type: ADME, organism-based
- Parameters: dose 10 mg/kg, route intravenous
- Experimental context: in vivo, read-out: Vdss
# Lookup of reported Vd keyed by entry
Kindly answer with a numeric value in L/kg, unit omitted.

Below, 3 compounds whose answers are already recorded.
{"Input smiles": "C[C@@](CCc1ccc(-c2ccc(O)cc2)cc1)(C(=O)NO)S(C)(=O)=O", "Vd (L/kg)": 2.6}
{"Input smiles": "C[C@@](CCc1ccc(-c2ccc(O)cc2)cc1)(C(=O)O)S(C)(=O)=O", "Vd (L/kg)": 0.4}
{"Input smiles": "C[C@@](CCc1ccc(-c2ccc(C#N)cc2)cc1)(C(=O)NO)S(C)(=O)=O", "Vd (L/kg)": 1.4}

Please give the documented Vd of C[C@@](CCc1ccc(-c2ccccc2)cc1)(C(=O)NO)S(C)(=O)=O 2.7

----------
- System: UDP-3-O-acyl-N-acetylglucosamine deacetylase (Pseudomonas aeruginosa (strain ATCC 15692 / PAO1 / 1C / PRS 101 / LMG12228))
- Sequence (P47205 whole entry): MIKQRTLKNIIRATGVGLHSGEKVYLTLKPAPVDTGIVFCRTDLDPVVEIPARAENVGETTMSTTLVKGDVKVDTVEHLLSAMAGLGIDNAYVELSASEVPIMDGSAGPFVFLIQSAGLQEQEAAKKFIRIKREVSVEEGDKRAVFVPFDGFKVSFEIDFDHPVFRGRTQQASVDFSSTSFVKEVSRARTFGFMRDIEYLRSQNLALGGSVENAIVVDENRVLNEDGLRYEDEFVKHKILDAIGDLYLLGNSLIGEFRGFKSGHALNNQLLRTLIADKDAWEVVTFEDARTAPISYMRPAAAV
- Test method notes: Inhibition of Pseudomonas aeruginosa LpxC using UDP-3-O-(R-hydroxydecanoyl)-N-acetylglucosamine incubated for 30 mins prior to substrate addition measured after 60 mins by mass spectrophotometry
Recorded metric: pIC50
Conceptually, pIC50 converts a concentration in mol/L into minus its log10.

{"Compound": "C[C@@](CCc1ccc(-c2ccc(C(=O)CO)cc2)cc1)(C(=O)NO)S(C)(=O)=O", "Reported measurement": 8.73}
{"Compound": "CC(COc1ccc(-c2ccccc2)cc1)(C(=O)NO)S(C)(=O)=O (racemic)", "Reported measurement": 7.50}
{"Compound": "CC(CSc1ccc(-c2ccccc2)cc1)(C(=O)NO)S(C)(=O)=O (racemic)", "Reported measurement": 8.04}
{"Compound": "CCc1ccccc1-c1ccc(CC[C@](C)(C(=O)NO)S(C)(=O)=O)cc1", "Reported measurement": 7.58}
{"Compound": "C[C@@](CCc1ccc(-c2ccc(C(=O)O)cc2)cc1)(C(=O)NO)S(C)(=O)=O", "Reported measurement": 7.13}

Now for another entry.
# return recorded pIC50 for entry C[C@@](CCc1ccc(-c2ccc(F)cc2)cc1)(C(=O)NO)S(C)(=O)=O 8.76

----------
- System: Matrix metalloproteinase-16 (Homo sapiens, UniProt P51512)
pKi: −log10 of the molar value.
Recorded metric: pKi

Give pKi; test system Matrix metalloproteinase-16 (Homo sapiens, UniProt P51512); compound C[C@@](CCc1ccc(-c2ccccc2)cc1)(C(=O)NO)S(C)(=O)=O < 5.00

----------
// reported MIC90 for each item listed
- Tested on: Pseudomonas aeruginosa
- Test method notes: Antibacterial activity against Pseudomonas aeruginosa clinical isolates after 16 to 20 hrs by broth microdilution method
- Assay type: functional
Numbers only; they are read as µg/mL.

Past entries and their recorded results:
{"Compound": "NCC[C@H](O)C(=O)N[C@@H]1C[C@H](N)[C@@H](O[C@H]2O[C@H](CN)[C@@H](O)[C@H](O)[C@H]2O)[C@H](O)[C@H]1O[C@H]1O[C@H](CO)[C@@H](O)[C@H](N)[C@H]1O [AMIKACIN]", "MIC90 [µg/mL]": 32}
{"Compound": "C[C@@](CCc1ccc(-c2ccc(O)cc2)cc1)(C(=O)NO)S(C)(=O)=O", "MIC90 [µg/mL]": 4}

# next compound below
Recall and state the measured MIC90 for C[C@@](CCc1ccc(-c2ccccc2)cc1)(C(=O)NO)S(C)(=O)=O . 2

----------
- System: Stromelysin-2 (Homo sapiens, UniProt P09238)
- Sequence (P09238 whole entry): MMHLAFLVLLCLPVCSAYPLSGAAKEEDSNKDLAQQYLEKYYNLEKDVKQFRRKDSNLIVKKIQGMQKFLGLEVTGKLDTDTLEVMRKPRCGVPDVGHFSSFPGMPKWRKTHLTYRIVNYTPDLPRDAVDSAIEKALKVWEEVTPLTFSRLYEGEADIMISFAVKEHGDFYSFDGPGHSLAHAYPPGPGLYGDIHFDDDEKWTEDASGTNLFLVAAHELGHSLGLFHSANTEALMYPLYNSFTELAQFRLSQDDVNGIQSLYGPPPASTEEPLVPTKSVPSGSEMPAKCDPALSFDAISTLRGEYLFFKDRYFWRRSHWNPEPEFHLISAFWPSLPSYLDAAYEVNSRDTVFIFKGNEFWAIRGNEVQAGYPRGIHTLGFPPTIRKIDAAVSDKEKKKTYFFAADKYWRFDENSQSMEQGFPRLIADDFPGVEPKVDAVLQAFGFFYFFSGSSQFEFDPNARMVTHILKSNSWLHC
Recorded metric: Ki

Tell us which Ki value is on record for C[C@@](CCc1ccc(-c2ccccc2)cc1)(C(=O)NO)S(C)(=O)=O > 10 µM

----------
- System: Matrix metalloproteinase-25 (Homo sapiens, UniProt Q9NPA2)
- Sequence (Q9NPA2 whole entry): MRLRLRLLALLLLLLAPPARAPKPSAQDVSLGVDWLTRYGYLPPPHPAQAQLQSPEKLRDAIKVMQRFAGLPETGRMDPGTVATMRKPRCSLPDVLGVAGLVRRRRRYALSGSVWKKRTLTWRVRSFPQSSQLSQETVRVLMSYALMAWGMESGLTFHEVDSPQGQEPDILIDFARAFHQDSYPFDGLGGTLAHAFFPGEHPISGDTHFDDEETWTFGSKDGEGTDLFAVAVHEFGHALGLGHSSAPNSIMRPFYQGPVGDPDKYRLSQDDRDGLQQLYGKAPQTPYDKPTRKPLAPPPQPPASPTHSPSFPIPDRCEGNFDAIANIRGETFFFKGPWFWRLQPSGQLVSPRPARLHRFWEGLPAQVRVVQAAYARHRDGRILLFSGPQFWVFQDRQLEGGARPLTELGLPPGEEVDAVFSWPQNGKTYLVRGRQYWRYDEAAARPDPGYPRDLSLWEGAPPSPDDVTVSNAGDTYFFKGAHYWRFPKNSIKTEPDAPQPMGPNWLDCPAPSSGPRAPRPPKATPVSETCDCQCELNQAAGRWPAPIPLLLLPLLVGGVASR
pKi: −log10 of the molar value.
Recorded metric: pKi

Report pKi from Matrix metalloproteinase-25 (Homo sapiens, UniProt Q9NPA2) testing of C[C@@](CCc1ccc(-c2ccccc2)cc1)(C(=O)NO)S(C)(=O)=O < 5.00

----------
- System: Macrophage metalloelastase (Homo sapiens)
- Sequence (P39900 whole entry): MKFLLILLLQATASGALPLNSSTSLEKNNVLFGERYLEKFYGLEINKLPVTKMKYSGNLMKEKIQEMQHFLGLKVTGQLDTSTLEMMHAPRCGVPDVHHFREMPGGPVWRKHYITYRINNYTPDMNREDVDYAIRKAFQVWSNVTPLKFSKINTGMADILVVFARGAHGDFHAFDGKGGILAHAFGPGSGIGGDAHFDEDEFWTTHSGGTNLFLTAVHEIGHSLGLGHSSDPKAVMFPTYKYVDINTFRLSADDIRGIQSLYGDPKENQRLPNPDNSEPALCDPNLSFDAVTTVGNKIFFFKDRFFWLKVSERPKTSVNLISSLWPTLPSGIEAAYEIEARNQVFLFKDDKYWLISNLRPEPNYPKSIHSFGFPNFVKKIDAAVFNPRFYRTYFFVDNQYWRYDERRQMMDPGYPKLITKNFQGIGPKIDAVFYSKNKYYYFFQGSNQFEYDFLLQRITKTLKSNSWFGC
- Test method notes: Inhibition of human MMP12
Recorded metric: Ki (µM)
Reply with just the number (in µM).

Provide measured Ki on Macrophage metalloelastase (Homo sapiens) for C[C@@](CCc1ccc(-c2ccccc2)cc1)(C(=O)NO)S(C)(=O)=O please. 1.35

----------
- System: Neutrophil collagenase (Homo sapiens)
- Sequence (P22894 whole entry): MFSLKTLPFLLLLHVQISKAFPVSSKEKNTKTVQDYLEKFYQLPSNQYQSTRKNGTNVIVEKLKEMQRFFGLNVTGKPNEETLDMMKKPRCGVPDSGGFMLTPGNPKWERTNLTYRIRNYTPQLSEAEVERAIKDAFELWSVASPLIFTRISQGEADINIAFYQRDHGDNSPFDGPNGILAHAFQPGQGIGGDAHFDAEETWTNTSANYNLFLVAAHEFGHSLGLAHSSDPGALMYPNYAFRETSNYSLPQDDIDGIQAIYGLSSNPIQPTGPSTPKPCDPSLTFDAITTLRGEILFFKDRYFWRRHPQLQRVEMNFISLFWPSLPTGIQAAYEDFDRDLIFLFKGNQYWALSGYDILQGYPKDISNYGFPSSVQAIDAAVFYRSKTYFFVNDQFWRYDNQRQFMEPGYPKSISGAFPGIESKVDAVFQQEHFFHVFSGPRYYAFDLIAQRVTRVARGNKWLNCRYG
- Test method notes: Inhibition of human MMP8
pKi: −log10 of the molar value.
Recorded metric: pKi

State recorded pKi with Neutrophil collagenase (Homo sapiens), entry C[C@@](CCc1ccc(-c2ccccc2)cc1)(C(=O)NO)S(C)(=O)=O , no comment. < 5.00
